Where do these numbers come from? They come from ChEMBL document CHEMBL1781898.

test_method_notes: Free drug level in rat
Type: ADME, organism-based
condition_summary: in vivo
reported_metric: fraction unbound
Number, no unit, nothing else.

Ask: Can you look up the measured fraction unbound of `Cc1noc(C)c1CCC1CCN(S(=O)(=O)C[C@](C)(C[C@H](C)c2ncc(F)cn2)N(O)C=O)CC1` for me?
Result: 0.22

* * *

tested_target: A disintegrin and metalloproteinase with thrombospondin motifs 5 (Homo sapiens, UniProt Q9UNA0)
Sequence (Q9UNA0 whole entry): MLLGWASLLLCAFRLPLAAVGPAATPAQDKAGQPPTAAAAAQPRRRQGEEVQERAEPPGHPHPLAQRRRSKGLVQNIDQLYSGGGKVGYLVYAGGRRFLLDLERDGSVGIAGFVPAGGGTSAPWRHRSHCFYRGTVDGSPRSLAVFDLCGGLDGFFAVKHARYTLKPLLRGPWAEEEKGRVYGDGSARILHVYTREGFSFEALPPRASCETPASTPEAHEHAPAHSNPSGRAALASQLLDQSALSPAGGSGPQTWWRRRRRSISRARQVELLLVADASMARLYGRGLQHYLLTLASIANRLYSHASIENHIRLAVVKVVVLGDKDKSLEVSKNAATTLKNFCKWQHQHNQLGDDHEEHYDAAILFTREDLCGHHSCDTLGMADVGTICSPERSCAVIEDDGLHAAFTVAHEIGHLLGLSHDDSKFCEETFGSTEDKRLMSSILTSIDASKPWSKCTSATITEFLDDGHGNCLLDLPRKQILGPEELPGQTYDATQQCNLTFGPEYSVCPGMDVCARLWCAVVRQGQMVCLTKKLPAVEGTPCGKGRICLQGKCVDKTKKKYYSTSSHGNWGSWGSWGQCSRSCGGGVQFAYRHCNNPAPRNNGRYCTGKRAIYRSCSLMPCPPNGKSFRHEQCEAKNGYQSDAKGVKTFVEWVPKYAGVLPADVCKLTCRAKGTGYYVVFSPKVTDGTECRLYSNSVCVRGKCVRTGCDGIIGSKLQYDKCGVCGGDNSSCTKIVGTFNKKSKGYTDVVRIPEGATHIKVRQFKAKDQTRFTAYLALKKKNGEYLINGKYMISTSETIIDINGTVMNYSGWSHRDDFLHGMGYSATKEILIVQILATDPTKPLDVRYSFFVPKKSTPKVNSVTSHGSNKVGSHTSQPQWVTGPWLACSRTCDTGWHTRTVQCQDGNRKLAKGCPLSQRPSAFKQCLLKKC
So I've got a bunch of compounds here, and I need their pIC50 values.
# pIC50: negative log10 of molar concentration; output just the value

Ask: # input compound: `Cc1noc(C)c1CCC1CCN(S(=O)(=O)CC2(N(O)C=O)CCCC2)CC1` ; wanted: its pIC50
Result: 5.72

Ask: Repeat with `Cc1noc(C)c1CCC1CCN(S(=O)(=O)C[C@](C)(C[C@H](C)c2ncc(F)cn2)N(O)C=O)CC1`
Result: 7.64

Ask: Can you check `Cc1noc(C)c1CCC1CCN(S(=O)(=O)CC2(N(O)C=O)CCN(C(=O)N3CCC3)CC2)CC1` next?
Result: 6.32

Ask: One more compound: `Cc1noc(C)c1CCC1CCN(S(=O)(=O)CC2(N(O)C=O)CCN(C)CC2)CC1`
Result: 5.92

Ask: One more compound: `Cc1cc(CCC2CCN(S(=O)(=O)CC3(N(O)C=O)CCOCC3)CC2)c(C)cn1`
Result: 5.47

* * *

tested_target: A disintegrin and metalloproteinase with thrombospondin motifs 5 (Homo sapiens, UniProt Q9UNA0)
Sequence (Q9UNA0 whole entry): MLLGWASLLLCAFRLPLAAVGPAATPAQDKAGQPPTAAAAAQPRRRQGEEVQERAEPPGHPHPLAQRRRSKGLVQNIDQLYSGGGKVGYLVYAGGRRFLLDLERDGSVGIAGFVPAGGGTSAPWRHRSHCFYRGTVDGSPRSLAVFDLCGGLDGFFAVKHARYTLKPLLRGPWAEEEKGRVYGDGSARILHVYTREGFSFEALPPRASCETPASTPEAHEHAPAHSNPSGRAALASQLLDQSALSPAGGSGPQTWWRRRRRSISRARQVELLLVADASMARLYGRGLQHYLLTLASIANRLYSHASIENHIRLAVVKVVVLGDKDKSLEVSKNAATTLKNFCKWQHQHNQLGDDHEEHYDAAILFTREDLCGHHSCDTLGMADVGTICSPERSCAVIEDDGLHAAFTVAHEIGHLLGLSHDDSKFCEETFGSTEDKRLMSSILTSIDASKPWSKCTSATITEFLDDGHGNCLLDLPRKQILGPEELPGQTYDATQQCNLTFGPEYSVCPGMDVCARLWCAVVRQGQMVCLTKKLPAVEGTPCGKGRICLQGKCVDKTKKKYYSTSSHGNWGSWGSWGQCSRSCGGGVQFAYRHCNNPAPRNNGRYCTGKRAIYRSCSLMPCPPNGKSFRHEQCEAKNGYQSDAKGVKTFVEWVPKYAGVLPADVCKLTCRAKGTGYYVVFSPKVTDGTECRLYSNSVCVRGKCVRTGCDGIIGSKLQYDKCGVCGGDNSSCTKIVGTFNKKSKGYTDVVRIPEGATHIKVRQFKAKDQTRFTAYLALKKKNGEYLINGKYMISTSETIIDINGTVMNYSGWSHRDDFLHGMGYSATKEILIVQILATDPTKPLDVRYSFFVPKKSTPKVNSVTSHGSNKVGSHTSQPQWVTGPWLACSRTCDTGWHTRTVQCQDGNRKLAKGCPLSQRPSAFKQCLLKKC
Field: IC50. Provide a value for each of the compounds that follow.
Remember to put the unit after the number in your answer.

Ask: Returns the measured IC50 for the input compound. Input: `Cc1ccncc1CCC1CCN(S(=O)(=O)CC2(N(O)C=O)CCOCC2)CC1`
Result: 630 nM

Ask: Query `Cc1cc(S(C)(=O)=O)ccc1CCC1CCN(S(=O)(=O)CC2(N(O)C=O)CCOCC2)CC1` next
Result: 530 nM

Ask: Try this compound too: `Cc1cc(F)ccc1CCC1CCN(S(=O)(=O)CC2(N(O)C=O)CCN(C(=O)C3CCC3)CC2)CC1`
Result: 11 nM

Ask: What would you report for `Cc1cc(C)c(CCC2CCN(S(=O)(=O)CC3(N(O)C=O)CCOCC3)CC2)cn1` ?
Result: 1400 nM

Ask: Next compound: `Cc1cc(F)ccc1CCC1CCN(S(=O)(=O)CC2(N(O)C=O)CCOCC2)CC1`
Result: 69 nM

Ask: Likewise for `CS(=O)(=O)c1ccc(CCC2CCN(S(=O)(=O)CC3(N(O)C=O)CCOCC3)CC2)c(C2CC2)c1` ?
Result: 950 nM

Ask: `Cc1noc(C)c1CCC1CCN(S(=O)(=O)CC2(N(O)C=O)CCCCCC2)CC1` , same question.
Result: 1500 nM

Ask: Now the compound `Cc1cc(Cl)ccc1CCC1CCN(S(=O)(=O)CC2(N(O)C=O)CCN(C(=O)C3CCC3)CC2)CC1`
Result: 20 nM

Ask: Moving on to the next compound: `Cc1noc(C)c1CCC1CCN(S(=O)(=O)CC2(N(O)C=O)CCN(S(C)(=O)=O)CC2)CC1`
Result: 310 nM

Ask: What do you have for `Cc1ncccc1CCC1CCN(S(=O)(=O)CC2(N(O)C=O)CCOCC2)CC1` ?
Result: 5400 nM

Ask: // same read-out, input: `Cc1noc(C)c1CCC1CCN(S(=O)(=O)CC2(N(O)C=O)CCC(F)(F)CC2)CC1`
Result: 410 nM

Ask: Another compound to look at: Cc1noc(C)c1CCC1CCN(S(=O)(=O)CC2(N(O)C=O)CCOC(C)(C)C2)CC1 (configuration not stated)
Result: 250 nM

* * *

tested_target: Matrix metalloproteinase-14 (Homo sapiens)
test_method_notes: Inhibition of recombinant human MMP-14 assessed as substrate cleavage after 20 hrs by fluorescence assay
reported_metric: IC50

Ask: # query: IC50 of entry `Cc1cc(S(C)(=O)=O)ccc1CCC1CCN(S(=O)(=O)CC2(N(O)C=O)CCOCC2)CC1`
Result: > 10 µM

Ask: Next molecule: `Cc1ncccc1CCC1CCN(S(=O)(=O)CC2(N(O)C=O)CCOCC2)CC1`
Result: 8 µM

Ask: Now this one: `Cc1noc(C)c1CCC1CCN(S(=O)(=O)CC2(N(O)C=O)CCCCCC2)CC1`
Result: > 10 µM

Ask: Follow-up item: `Cc1cc(Cl)ccc1CCC1CCN(S(=O)(=O)CC2(N(O)C=O)CCOCC2)CC1`
Result: > 10 µM

Ask: Same for CC(CS(=O)(=O)N1CCN(c2ccc(F)cc2)CC1)N(O)C=O (racemic)
Result: 0.226 µM

Ask: One more molecule: `Cc1ccccc1CCC1CCN(S(=O)(=O)CC2(N(O)C=O)CCOCC2)CC1`
Result: > 0.77 µM

Ask: What would you report for `Cc1noc(C)c1CCC1CCN(S(=O)(=O)CC2(N(O)C=O)CCCCC2)CC1` ?
Result: > 7.5 µM

Ask: Next up: `Cc1cc(F)ccc1CCC1CCN(S(=O)(=O)CC2(N(O)C=O)CCOCC2)CC1`
Result: 3.1 µM

Ask: Please give the result for `Cc1ccncc1CCC1CCN(S(=O)(=O)CC2(N(O)C=O)CCOCC2)CC1` too.
Result: > 7.2 µM

Ask: Next entry: `Cc1noc(C)c1CCC1CCN(S(=O)(=O)CC2(N(O)C=O)CCC(F)(F)CC2)CC1`
Result: > 10 µM

Ask: Queued: `Cc1noc(C)c1CCC1CCN(S(=O)(=O)CC2(N(O)C=O)CCCC2)CC1`
Result: > 10 µM

Ask: Here is the next molecule: `Cc1cc(C)c(CCC2CCN(S(=O)(=O)CC3(N(O)C=O)CCOCC3)CC2)cn1`
Result: > 10 µM
